Value source: ChEMBL document CHEMBL1143875

# assay-explanation: Cmax in Beagle dog at 10 mg/kg administered as single dose on day 7
# Format: ADME, organism-based, Canis lupus familiaris
# Set-up: dose 10 mg/kg
# study-conditions: in vivo
reported-property: Cmax (µg/mL)
One number for each entry, in µg/mL.

Problem: Hello, please tell me recorded Cmax for this one: Cc1cc(SCc2nc(-c3ccc(Cl)c(Cl)c3)ns2)ccc1OC(C)(C)C(=O)O
Result: 10.1

---

# assay-explanation: Half life in ob/ob C57BL/6J-leptin deficient obese mouse at 0.1 mg/kg administered as multiple dose after 11 days
# Assay type: ADME, organism-based
# Design: dose 0.1 mg/kg
# study-conditions: in vivo
reported-property: half-life (h)
One number for each entry, in h.

Problem: Hello, please tell me recorded half-life for this one: Cc1cc(SCc2nc(-c3ccc(Cl)c(Cl)c3)ns2)ccc1OC(C)(C)C(=O)O
Result: 5.1

---

# assay-explanation: Cmax in Sprague-Dawley rat at 3 mg/kg administered as single dose on day 8
# Format: ADME, organism-based
# Design: dose 3 mg/kg
# study-conditions: in vivo
reported-property: Cmax (ng/mL)
One number for each entry, in ng/mL.

Problem: Hello, please tell me recorded Cmax for this one: Cc1cc(SCc2nc(-c3ccc(Cl)c(Cl)c3)ns2)ccc1OC(C)(C)C(=O)O
Result: 2520

---

# assay-explanation: AUC in Beagle dog at 0.3 mg/kg administered as multiple dose after 7 days
# Assay type: ADME, organism-based, Canis lupus familiaris
# Parameters: dose 0.3 mg/kg
# study-conditions: plasma
reported-property: AUC at 168 h (ng·h/mL)
Numbers only, in ng·h/mL.

Problem: Hello, please tell me recorded AUC at 168 h for this one: Cc1cc(SCc2nc(-c3ccc(Cl)c(Cl)c3)ns2)ccc1OC(C)(C)C(=O)O
Result: 2650

---

# assay-explanation: Half life in Beagle dog at 10 mg/kg administered as multiple dose after 7 days
# Type: ADME, organism-based, Canis lupus familiaris
# Design: dose 10 mg/kg
# study-conditions: in vivo
reported-property: half-life (h)
Numbers only, in h.

Problem: Hello, please tell me recorded half-life for this one: Cc1cc(SCc2nc(-c3ccc(Cl)c(Cl)c3)ns2)ccc1OC(C)(C)C(=O)O
Result: 6.2

---

# assay-explanation: Cmax in Sprague-Dawley rat at 3 mg/kg administered as multiple dose after 8 days
# Assay type: ADME, organism-based
# Set-up: dose 3 mg/kg
# study-conditions: in vivo
reported-property: Cmax
Kindly report the value followed by its unit.

Problem: Hello, please tell me recorded Cmax for this one: Cc1cc(SCc2nc(-c3ccc(Cl)c(Cl)c3)ns2)ccc1OC(C)(C)C(=O)O
Result: 2000 ng/mL

---

# assay-explanation: Half life in Beagle dog at 10 mg/kg administered as single dose on day 7
# Type: ADME, organism-based, Canis lupus familiaris
# Parameters: dose 10 mg/kg
# study-conditions: in vivo
reported-property: half-life
Kindly report the value followed by its unit.

Problem: Hello, please tell me recorded half-life for this one: Cc1cc(SCc2nc(-c3ccc(Cl)c(Cl)c3)ns2)ccc1OC(C)(C)C(=O)O
Result: 5.8 h

---

# assay-explanation: Cmax in Beagle dog at 0.3 mg/kg administered as multiple dose after 7 days
# Format: ADME, organism-based, Canis lupus familiaris
# Parameters: dose 0.3 mg/kg
# study-conditions: in vivo
reported-property: Cmax (ng/mL)
One number for each entry, in ng/mL.

Problem: Hello, please tell me recorded Cmax for this one: Cc1cc(SCc2nc(-c3ccc(Cl)c(Cl)c3)ns2)ccc1OC(C)(C)C(=O)O
Result: 398
